test name: Thermo Scientific Hypersil GOLD aQ, 100 × 2.1 mm, 1.9 µm, 30 °C, 0.3 mL/min, estimated dead time 0.73 min; A: water + 0.01% formic acid + 4 mM ammonium formate; B: methanol + 0.01% formic acid + 4 mM ammonium formate; gradient (min/%B) 0/5 1/5 8/100 12/100
experimental context: stereoisomer not certain

{"molecule": "CNC(=O)ON=C(C)C(C)S(C)(=O)=O (stereo unspecified)", "reading unit": "min", "LC retention time": 7.37}
{"molecule": "CC(C)c1cc(Oc2ccccc2)cc(C(C)C)c1NC(=S)NC(C)(C)C", "reading unit": "min", "LC retention time": 11}
{"molecule": "CNC(=O)ON=C(C)C(C)SC (stereo unspecified)", "reading unit": "min", "LC retention time": 7.89}
{"molecule": "CNC(=O)ON=CC(C)(C)S(C)(=O)=O", "reading unit": "min", "LC retention time": 7.37}
{"molecule": "CC(C)N1C(=O)N(c2ccccc2)CSC1=NC(C)(C)C", "reading unit": "min", "LC retention time": 10.7}
{"molecule": "CCOP(=S)(OCC)Oc1ccc(=O)n(-c2ccccc2)n1", "reading unit": "min", "LC retention time": 9.71}
{"molecule": "CC(=O)OCC12CC(OC(=O)CC(C)C)C(C)=CC1OC1C(O)C(OC(C)=O)C2(C)C12CO2 (stereo unspecified)", "reading unit": "min", "LC retention time": 9.3}
{"molecule": "CCOP(=O)(SC(C)CC)N1CCSC1=O (stereo unspecified)", "reading unit": "min", "LC retention time": 8.81}
{"molecule": "CC(C)(C)C(O)C(Oc1ccc(-c2ccccc2)cc1)n1cncn1 (stereo unspecified)", "reading unit": "min", "LC retention time": 10.3}
{"molecule": "Cc1cc(C2CC2)nc(Nc2ccccc2)n1", "reading unit": "min", "LC retention time": 10.3}
{"molecule": "CCOP(=S)(OCC)Oc1ccc(S(C)=O)cc1 (stereo unspecified)", "reading unit": "min", "LC retention time": 9.1}
{"molecule": "CNC(=O)Oc1cccc2c1OC(C)(C)O2", "reading unit": "min", "LC retention time": 8.4}
{"molecule": "CCOC(=O)Nc1cccc(OC(=O)Nc2ccccc2)c1", "reading unit": "min", "LC retention time": 9.23}
{"molecule": "CC1=NNC(=O)N(N=Cc2cccnc2)C1", "reading unit": "min", "LC retention time": 1.58}
{"molecule": "CNC(=O)ON=CC(C)(C)S(C)=O (stereo unspecified)", "reading unit": "min", "LC retention time": 3.06}
{"molecule": "O=c1[nH]c2c(c(=O)n1C1CCCCC1)CCC2", "reading unit": "min", "LC retention time": 9.11}
{"molecule": "CC#Cc1cc(C)nc(Nc2ccccc2)n1", "reading unit": "min", "LC retention time": 10}
{"molecule": "CCC(C)c1cc([N+](=O)[O-])cc([N+](=O)[O-])c1OC(=O)OC(C)C (stereo unspecified)", "reading unit": "min", "LC retention time": 9.22}
{"molecule": "CCOC(=O)c1cn2nc(OP(=S)(OCC)OCC)cc2nc1C", "reading unit": "min", "LC retention time": 10.4}
{"molecule": "CNC(=O)CSP(=S)(OC)OC", "reading unit": "min", "LC retention time": 7.18}
{"molecule": "C#CCOS(=O)OC1CCCCC1Oc1ccc(C(C)(C)C)cc1 (stereo unspecified)", "reading unit": "min", "LC retention time": 10.9}
{"molecule": "CCNc1nc(NCC)nc(SC)n1", "reading unit": "min", "LC retention time": 8.62}
{"molecule": "CNC(=O)ON=C(C)C(C)S(C)=O (stereo unspecified)", "reading unit": "min", "LC retention time": 3.06}
{"molecule": "CNC(=O)Oc1cccc2c1OC(C)(C)C2O (stereo unspecified)", "reading unit": "min", "LC retention time": 7.11}
{"molecule": "CCOP(=S)(OCC)Oc1cnc2ccccc2n1", "reading unit": "min", "LC retention time": 10.2}
{"molecule": "COC(=O)C=C(C)OP(=O)(OC)OC", "reading unit": "min", "LC retention time": 7.66}
